Target: T1, full-length human SNX27, wild-type (human, UniProt Q96L92 1-541)
T1 construct: sorting nexin-27 (SNX27), human; pET-28a, TEV site between His-tag and SNX27; also called hSNX27FL; hSNX27 WT; source: E. coli BL21 (DE3), purified (TALON or Ni-NTA, SEC)
Assay: ITC; 600 μM SNX1 75-92 peptide titrated into 20 μM hSNX27 wild-type or single-site mutant; 25°C; 50 mM HEPES pH 7.5, 200 mM NaCl, 5% glycerol, 1 mM β-ME; single-site model
Conditions: both partners purified
measurement.label: Kd (µM)
One number for each entry, in µM.

Asked: So what does the record say about Kd for NGIHEEQDQEPQDLFADA (human SNX1 residues 75 to 92; also called second aDLF motif of human SNX1; source: synthetic peptide (Genscript)) [SNX1_(75-92) peptide] ?
Given back: 12.7
